- Test system: K. pneumoniae NVT1001 strains with ESBL or AmpC β-lactamase plasmids
- procedure summary: Etest MIC of β-lactams, OmpK35/36 loss, ΔramR and/or extended-spectrum β-lactamase and AmpC β-lactamase (Table 8)
- Type: cell-based, Klebsiella pneumoniae
- conditions: Klebsiella pneumoniae, DHA-1-AmpR on pACYC177; Δ35 (ΔompK35 mutant)
- Protocol: DNA fragments of the resistance genes along with their flanking regions were amplified from clinical plasmids via PCR with specific primer pairs. The resulting PCR fragments were digested and then cloned into the plasmid pACYC177 or pACYC184. The resulting plasmids were then transformed into K. pneumoniae strain NVT1001 via electroporation. […] The MICs of antibiotics were determined using the Etest (Biodisk AB, Sweden) according to the manufacturer's instructions. […]

compound | operator symbol | MIC [µg/mL]
C[C@@H](O)[C@H]1C(=O)N2C(C(=O)O)=C(S[C@@H]3CN[C@H](C(=O)N(C)C)C3)[C@H](C)[C@H]12 [Meropenem] | = | 0.25
CC(=O)OCC1=C(C(=O)O)N2C(=O)[C@@H](NC(=O)Cc3cccs3)[C@H]2SC1 [Cephalothin] | > | 256
CO/N=C(\C(=O)N[C@@H]1C(=O)N2C(C(=O)O)=C(COC(N)=O)CS[C@H]12)c1ccco1 [Cefuroxime] | > | 256
CO/N=C(\C(=O)N[C@@H]1C(=O)N2C(C(=O)O)=C(COC(C)=O)CS[C@H]12)c1csc(N)n1 [Cefotaxime] | = | 16
